# PROTOCOL_SUMMARY: endothelial E-selectin expression blockers – imaging, HUVEC, immunofluorescence, MLSMR starter and 10KST1 sets, primary screen (AID 487);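 further: signal is fraction of cell area covered by stained E-selectin grains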
# DETAILS: HUVEC TNFalpha-induced E-selectin immunofluorescence imaging, at 2 µM; active compounds read high
MEASURED_PARAMETER: inhibition (%)
Write the answer as a number in %, unit excluded.

[
  {
    "COMPOUND": "CCOc1ccc(C(CC(=O)O)NC(=O)c2ccco2)cc1OC (stereo not drawn)",
    "MEASURED_PARAMETER": "inhibition",
    "MEASURE_UNIT": "%",
    "OBSERVED_RESULT": 22.7
  },
  {
    "COMPOUND": "COc1ccc2c(C(=O)CN(C)C3CCCCC3)c[nH]c2c1",
    "MEASURED_PARAMETER": "inhibition",
    "MEASURE_UNIT": "%",
    "OBSERVED_RESULT": -20.8
  },
  {
    "COMPOUND": "CC(=O)C1=C(O)C(=O)N(Cc2ccco2)C1c1ccc2c(c1)OCO2 (stereo not drawn)",
    "MEASURED_PARAMETER": "inhibition",
    "MEASURE_UNIT": "%",
    "OBSERVED_RESULT": 7.1
  },
  {
    "COMPOUND": "C=CCC(Nc1ccco1)c1ccccc1 (stereo not drawn)",
    "MEASURED_PARAMETER": "inhibition",
    "MEASURE_UNIT": "%",
    "OBSERVED_RESULT": -17.9
  },
  {
    "COMPOUND": "O=C(CSc1nnc(-c2cccs2)o1)N1CCOCC1",
    "MEASURED_PARAMETER": "inhibition",
    "MEASURE_UNIT": "%",
    "OBSERVED_RESULT": -6.3
  }
]

Qu. Item under review: CC1(C)Cc2noc(N)c2C(C)(C)N1OC(=O)c1ccco1 . Reported inhibition?
Ans. -89.1

Qu. Also check CSc1cccc(NC(=O)C2CCN(S(C)(=O)=O)CC2)c1
Ans. -296

Qu. Now consider CCOCCn1cnc2sc(C(=O)NCC(=O)OCC)c(C)c2c1=O and answer again.
Ans. -256

Qu. Next entry: Cc1ccccc1-c1nc(CN2CCC(C(=O)NCCCN3CCOCC3)CC2)c(C)o1
Ans. -67.2

Qu. Try this compound too: Cc1nc(=S)n(-c2ccccc2)[nH]1
Ans. -31.2

Qu. Param item: CC1(C)CC(=O)C(C2=NC(C)(C)Cc3ccccc32)=C(O)C1
Ans. -46.3

Qu. Quick one: COCn1c(COc2ccccc2)nc2ccccc21
Ans. 29

Qu. Another compound to check: NC(=O)c1c(-c2ccccc2)oc2ccc(O)cc12
Ans. -104

Qu. Now give it for Nc1cc(C(=O)O)ccc1Nc1ccccc1 too.
Ans. 15.1

Qu. Now consider CCN1CCN(c2c(Cl)cccc2NC(=O)c2ccc3c(c2)OCCO3)CC1 and answer again.
Ans. -82.8

Qu. # repeat for COCCCNC(=O)c1ccc2c(c1)OCO2
Ans. -36.4

Qu. Record: COc1cccc(-c2noc(CCC(=O)NC3CCCCC3)n2)c1
Ans. -39.4

Qu. What about CCOC(=O)N1CCC(NC(=O)c2ccc(OC)c(CN3CC(=O)N4CCCC4C3=O)c2)CC1 (stereo not drawn) ?
Ans. -71.7

Qu. Repeat for the following compound: O=C(Cc1c(O)c2ccccc2[nH]c1=O)NCc1ccc(F)cc1
Ans. -25.6

Qu. Next record, please: CC1CCN(S(=O)(=O)c2ccc(NC(=O)CSc3nnnn3C)cc2)CC1
Ans. -1.6

Qu. Again, but for CCOC(=O)C1CCCN(C(=O)c2ccc(CS(=O)(=O)Cc3ccccc3C)o2)C1 (stereo not drawn)
Ans. -57.8

Qu. Note, next up: Cc1cc(C)c2nc(N)sc2c1
Ans. 16

Qu. Next compound up: COC(=O)c1cc(Oc2ccc(C(=O)OC)cc2N)cc(C(=O)OC)c1
Ans. -19

Qu. Try this compound next: O=C(Nc1cccc(C(F)(F)F)c1)c1cccnc1N1CCCC1
Ans. -32.4

These data points were gathered from PubChem BioAssay.
